- assayed.system: human GPR119 (Homo sapiens, UniProt Q8TDV5)
- Construct: expression vector for human GPR119 cDNA (Acc. No. NP_848566)
- Sequence (Q8TDV5 whole entry): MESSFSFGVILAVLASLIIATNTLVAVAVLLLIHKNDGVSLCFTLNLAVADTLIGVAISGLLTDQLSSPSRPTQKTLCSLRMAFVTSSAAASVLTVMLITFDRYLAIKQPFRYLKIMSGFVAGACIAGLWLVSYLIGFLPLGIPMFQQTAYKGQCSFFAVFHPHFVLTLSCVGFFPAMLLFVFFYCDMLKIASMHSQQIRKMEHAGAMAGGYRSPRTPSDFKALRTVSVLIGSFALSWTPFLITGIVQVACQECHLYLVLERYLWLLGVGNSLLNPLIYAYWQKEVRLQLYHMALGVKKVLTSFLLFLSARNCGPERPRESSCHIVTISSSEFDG
- assay.protocol: AlphaScreen cAMP assay in MIN6 cells stably transfected with human GPR119
- details: Min-6/hGPR119 cells, AlphaScreen cAMP Assay Kit, 45 minutes incubation at room temperature
- Protocol: The compounds of formula I according to the invention modulate the activity of the G-protein-coupled receptor GPR119. The effect of the compounds on the activation of GPR119 and on the stimulation of intracellular cAMP concentration is determined using the AlphaScreen cAMP Assay Kit (Cat. No. #6760625R) made by PerkinElmer. MIN6 cells [Miyazaki J et al. Endocrinology. 1990 July; 127(1):126-32] are stably transfected with an expression vector for human GPR119 cDNA (Acc. No. NP_848566). […]
pEC50: −log10 of the molar value.

compound	pEC50
CCOC(=O)c1noc(N2CCC(N(C(=O)c3ccc(-c4cnco4)cc3)C3CC3)CC2)n1 [Example 45]	6.59
O=C(c1ccc(-c2cnco2)cc1)N(C1CC1)C1CCN(c2nc(-c3ccccc3)no2)CC1 [Example 6]	7.64
O=C(c1ccc(-c2cnco2)cc1)N(C1CC1)C1CCN(c2ccc(Cl)cn2)CC1 [Example 80]	6.75
CCc1cnc(N2CCC(N(C(=O)c3ccc(-c4cnco4)cc3)C3CC3)CC2)nc1 [Example 19]	7.49
